# assay-method-text: molar heat capacity at constant pressure
# test-conditions: 335.15 K; 101.33 kPa; Liquid; Large sample (1 g) DSC
readout: molar heat capacity at constant pressure (J/K/mol)

| molecule | unit-spec | measured-value |
| --- | --- | --- |
| CCOCCO | J/K/mol | 224.9 |
| CCCOCCO | J/K/mol | 258 |
| COCCOCCOCCOCCO | J/K/mol | 458.7 |
| CCCOCCOCCO | J/K/mol | 344.7 |
| CCOCCOCCO | J/K/mol | 314.4 |
| CCCCCCCCOCCOCCOCCO [2-[2-[2-(octyloxy)ethoxy]ethoxy]ethanol] | J/K/mol | 595.6 |
| COCCOCCOCCO [2-[2-(2-methoxyethoxy)ethoxy]ethanol] | J/K/mol | 366.4 |
| CCCCCCOCCOCCO | J/K/mol | 439.1 |
| COCCOCCO | J/K/mol | 278.7 |
| CCCCOCCO | J/K/mol | 291.6 |
| CCCCOCCOCCO | J/K/mol | 377.9 |

These data points were gathered from the NIST ThermoML archive (doi:10.1021/acs.jced.5b00051).
